I'd appreciate it if you could supply pIC50 values for the items below.
- tested-system: human recombinant LPA1 expressed in CHO cells (Homo sapiens (Human), UniProt Q92633)
- Sequence (Q92633 whole entry): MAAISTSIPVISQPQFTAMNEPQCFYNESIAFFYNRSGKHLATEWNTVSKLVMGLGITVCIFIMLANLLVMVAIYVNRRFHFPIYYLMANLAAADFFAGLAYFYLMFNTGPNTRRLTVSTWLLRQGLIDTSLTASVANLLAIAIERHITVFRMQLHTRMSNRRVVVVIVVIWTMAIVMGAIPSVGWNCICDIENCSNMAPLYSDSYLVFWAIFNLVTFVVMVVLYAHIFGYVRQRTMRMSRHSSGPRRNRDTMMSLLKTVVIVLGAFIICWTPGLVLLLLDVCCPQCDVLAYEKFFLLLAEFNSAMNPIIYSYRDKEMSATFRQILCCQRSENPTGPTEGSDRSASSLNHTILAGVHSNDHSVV
- method-notes: LPA1 antagonist FLIPR calcium assay in CHO-hLPA1 cells
- Format: cell-based
- condition: range of activity; CHO-hLPA1, LPA EC80, Ca2+ mobilization; read-out: LPA1 IC50
pIC50: −log10 of the molar value.

Use the examples below as a reference point.
| compound | value-reported |
| --- | --- |
| Cc1nc(-c2onc(C)c2NC(=O)O[C@H](C)c2nccs2)ccc1NC(=O)[C@H]1CCCC[C@@H]1C(=O)O | 6.22 to 6.60 |
| Cc1nc(-c2nnn(C)c2NC(=O)O[C@H](C)c2ccccc2Cl)ccc1NC(=O)[C@H]1CCCC[C@@H]1C(=O)O | > 7.30 |
| Cc1noc(-c2ccc(NC(=O)[C@H]3CCCC[C@@H]3C(=O)O)cn2)c1NC(=O)OC(C)c1cccnc1F (stereo partly shown) [Example 17] | 6.60 to 7.30 |
| Cc1nc(-c2onc(C)c2NC(=O)O[C@H](C)c2ccccc2F)ccc1NC(=O)[C@H]1CCCC[C@@H]1C(=O)O | > 7.30 |
| Cc1noc(-c2ncc(NC(=O)[C@H]3CCCC[C@@H]3C(=O)O)cc2F)c1NC(=O)O[C@H](C)c1ccccc1Cl | > 7.30 |

Record pIC50 for all entries; do not skip any.
1. Cc1nc(-c2onc(C)c2NC(=O)O[C@H](C)c2cccnc2)ccc1NC(=O)[C@H]1CCCC[C@@H]1C(=O)O
2. C[C@@H](OC(=O)Nc1ccsc1-c1ccc(NC(=O)C2CCCCC2C(=O)O)cc1)c1ccccc1Cl (single isomer, unassigned) [Example 7]

Result:
["6.60 to 7.30", "> 7.30"]
